target_under_test: T1, TNFR2-His (Sino Biological, 10417-H08H, NP_001057.1 Met1-Asp257, with multi-histidine tag expressed on … (human, UniProt P20333 23-257))
T1 construct: range 1-257; Bought protein; also called recombinant human TNFR2 protein; TNFR2-His antigen; not shown: C-terminal multi-histidine tag
T1 sequence (looked up): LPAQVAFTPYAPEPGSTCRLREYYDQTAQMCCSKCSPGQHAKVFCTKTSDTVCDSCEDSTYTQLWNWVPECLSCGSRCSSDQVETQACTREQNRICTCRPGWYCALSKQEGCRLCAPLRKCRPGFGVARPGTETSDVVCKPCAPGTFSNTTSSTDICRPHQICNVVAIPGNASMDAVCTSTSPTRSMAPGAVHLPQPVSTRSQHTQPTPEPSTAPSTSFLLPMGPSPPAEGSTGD
assay_notes: BLI, antibody captured on AHC probe, TNFR2-His in solution
readout_type: koff (s⁻¹)
Give the number; s⁻¹ is assumed, so skip it.

Q: Give koff for 11G2huVH3 + huVL1(P07264) (antibody, V domains shown, Humanized 11G2) VH: QVQLVQSGAEVKKPGASVKVSCKASGYTFITYDINWVRQATGQGLEWIGWIYPRDGNTQFNENFQGRVTMTRNTSISTAYMELSSLRSEDTAVYYCARGDRDYGYFDVWGQGTTVTVSS VL: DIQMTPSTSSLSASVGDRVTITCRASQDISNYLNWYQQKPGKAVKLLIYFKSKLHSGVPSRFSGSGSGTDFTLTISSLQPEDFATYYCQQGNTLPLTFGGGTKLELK
Ans: 0.00161

Q: Give koff for 11G2huVH3 + huVL3(P07273) (antibody, V domains shown, Humanized 11G2) VH: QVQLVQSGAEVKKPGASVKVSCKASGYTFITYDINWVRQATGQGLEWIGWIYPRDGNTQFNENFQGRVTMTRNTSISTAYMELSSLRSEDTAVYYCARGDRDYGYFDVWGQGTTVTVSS VL: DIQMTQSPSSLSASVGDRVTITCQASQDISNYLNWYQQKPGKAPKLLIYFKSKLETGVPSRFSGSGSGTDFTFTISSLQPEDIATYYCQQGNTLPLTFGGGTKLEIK
Ans: 0.00255

Q: Give koff for 11G2huVH5 + huVL1(P07266) (antibody, V domains shown, Humanized 11G2) VH: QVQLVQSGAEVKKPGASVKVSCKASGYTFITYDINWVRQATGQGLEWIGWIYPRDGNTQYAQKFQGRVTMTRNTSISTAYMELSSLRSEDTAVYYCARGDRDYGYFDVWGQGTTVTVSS VL: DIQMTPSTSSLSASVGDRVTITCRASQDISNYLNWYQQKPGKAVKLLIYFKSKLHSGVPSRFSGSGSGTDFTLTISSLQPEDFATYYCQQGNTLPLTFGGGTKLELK
Ans: 0.00163

Alright, here's another binder for you.
Q: Give koff for 11G2huVH1 + huVL1(P07262) (antibody, V domains shown, Humanized 11G2) VH: QVQLVQSGAEVKKPGASVKLSCKASGYTFITYDINWVRQAPGQGLEWIGWIYPRDGNTQFNENFKGKATMTVDESTSTAYMEVRSLRSDDTAVYYCARGDRDYGYFDVWGQGTTVTVSS VL: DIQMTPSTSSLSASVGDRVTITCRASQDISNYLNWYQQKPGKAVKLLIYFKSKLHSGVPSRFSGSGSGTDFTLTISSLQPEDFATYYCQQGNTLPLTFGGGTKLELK
Ans: 0.00115
